Assay: qHTS assay to identify small molecule that activate the aryl hydrocarbon receptor (AhR) signaling pathway - cell viability counter screen (AID 743086); note: nearly all actives have a fitted effect of over 45% in size
Details: HepG2-AhR-luc viability, CellTiter-Fluor, 24 h; series mostly up to 70.3 µM
Description: U.S. Tox21 Program National Center for Advancing Translational Sciences [NCATS] NIH Chemical Genomics Center [NCGC] U.S. Environmental Protection Agency [EPA] National Institutes of Environmental Health Sciences [NIEHS] National Toxicology Program [NTP] U.S. Food and Drug Administration [FDA] Tox21 Assay overview: The Aryl hydrocarbon Receptor (AhR), a member of the family of basic helix-loop-helix transcription factors, is crucial to adaptive responses to environmental changes. […]
Results filed as inconclusive are left out. The source made the active and inactive calls. Calls come from the whole dose curve; as a rule, active = well fitted cell-killing curve with a large enough effect in the repeat runs; inconclusive = weak or mixed curves, or effect the other way; inactive = flat fitted curve, though single readings scatter.
Outcomes: 1.0 = active, 0.0 = inactive

>  <molecule>
O=C(O)c1cccc(C(F)(F)F)c1

>  <label>
0.0

$$$$
>  <molecule>
C=CC(C)(CCC=C(C)C)OC=O (centres undefined)

>  <label>
0.0

$$$$
>  <molecule>
Cc1c(C)c2c(c(C)c1OC(=O)c1cccnc1)CC[C@@](C)(CCC[C@H](C)CCC[C@H](C)CCCC(C)C)O2

>  <label>
0.0

$$$$
>  <molecule>
CN1CCCCC1CCN1c2ccccc2Sc2ccc(S(C)=O)cc21 (centres undefined)

>  <label>
0.0

$$$$
>  <molecule>
CC(N=C(NC#N)Nc1ccncc1)C(C)(C)C (centres undefined)

>  <label>
0.0

$$$$
>  <molecule>
CC1=Nc2ccccc2C1(C)C

>  <label>
0.0

$$$$
>  <molecule>
C#CC1(O)CC[C@H]2[C@@H]3CCC4=CCCC[C@@H]4[C@H]3CC[C@@]21C (some centres undefined)

>  <label>
0.0

$$$$
>  <molecule>
CCC(CC)C(C)CCOC(C)=O (centres undefined)

>  <label>
0.0

$$$$
>  <molecule>
Cc1c(F)c(N2CCNC(C)C2)cc2c1c(=O)c(C(=O)O)cn2C1CC1 (centres undefined)

>  <label>
0.0

$$$$
>  <molecule>
OC/C=C/CO

>  <label>
0.0

$$$$
>  <molecule>
C=Cc1ccccc1C=C

>  <label>
0.0

$$$$
>  <molecule>
O=c1[nH]c(=O)n([C@H]2C[C@H](O)[C@@H](CO)O2)cc1F

>  <label>
0.0

$$$$
>  <molecule>
CCO[C@@H]1O[C@H](C(COCc2ccccc2)OCc2ccccc2)[C@H](OCc2ccccc2)[C@H]1O (some centres undefined)

>  <label>
0.0

$$$$
>  <molecule>
COc1cc(C)ccc1O

>  <label>
0.0

$$$$
>  <molecule>
CC(C)NC[C@@H](O)COc1ccc(CC(N)=O)cc1

>  <label>
0.0

$$$$
>  <molecule>
Cl[Si](Cl)(c1ccccc1)c1ccccc1

>  <label>
0.0

$$$$
>  <molecule>
CCN(CC)C(=O)c1cc(S(=O)(=O)Cc2ccccc2)c(N2CCC(c3ccccc3)CC2)cc1N(CC)CCN(C)C

>  <label>
1.0

$$$$
>  <molecule>
Cc1ccc(C(C)C)cc2c(C)ccc1-2

>  <label>
0.0

$$$$
>  <molecule>
CC[N+](CC)(CC)CCOc1ccc(/C=C/c2ccccc2)cc1

>  <label>
0.0

$$$$
>  <molecule>
CC1(C)CC(O)CC(C)(C)N1

>  <label>
0.0

$$$$
>  <molecule>
C1CCC(SSC2CCCCC2)CC1

>  <label>
0.0

$$$$
>  <molecule>
Nc1cc(Cl)c(O)c(Cl)c1

>  <label>
0.0

$$$$
>  <molecule>
Cc1cc(-c2ccc(N=Nc3cc(S(=O)(=O)O)c4ccccc4c3N)c(C)c2)ccc1N=Nc1cc(S(=O)(=O)O)c2ccccc2c1N

>  <label>
0.0

$$$$
>  <molecule>
Nc1nc2c(ncn2COCCO)c(=O)[nH]1

>  <label>
0.0

$$$$
>  <molecule>
Cc1ccc(C(=O)O)cc1

>  <label>
0.0

$$$$
>  <molecule>
CC(CCc1ccccc1)NCC(O)c1ccc(O)c(C(N)=O)c1 (centres undefined)

>  <label>
0.0

$$$$
>  <molecule>
OCC(F)(F)F

>  <label>
0.0

$$$$
>  <molecule>
CCCNCCC

>  <label>
0.0

$$$$
>  <molecule>
C[Si](Cl)(c1ccccc1)c1ccccc1

>  <label>
0.0

$$$$
>  <molecule>
CN1CCN(Cc2cc(-c3ccc4[nH]c(=O)oc4c3)co2)[C@@H](c2ccc(F)cc2)C1

>  <label>
1.0

$$$$
>  <molecule>
CCC(C)n1ncn(-c2ccc(N3CCN(c4ccc(OC[C@H]5CO[C@](Cn6cncn6)(c6ccc(Cl)cc6Cl)O5)cc4)CC3)cc2)c1=O (some centres undefined)

>  <label>
0.0

$$$$
>  <molecule>
O=C1CCCCCCCCCCCCCCCO1

>  <label>
0.0

$$$$
>  <molecule>
Nc1ccc(Oc2ccc(Cl)cc2)cc1

>  <label>
0.0

$$$$
>  <molecule>
O=c1[nH]c2ccccc2n1CCCN1CCN(C(c2ccccc2)c2ccccc2)CC1

>  <label>
1.0

$$$$
>  <molecule>
CCCCC(CC)COC(=O)CCCCC(=O)OCc1ccccc1 (centres undefined)

>  <label>
0.0

$$$$
>  <molecule>
CCCC1CCC(=O)CC1

>  <label>
0.0

$$$$
>  <molecule>
O=C(O)c1cc(=O)c2ccccc2o1

>  <label>
0.0

$$$$
>  <molecule>
CCC(CC)(CC(=O)Nc1cccc(/C=C/c2nc(C3CCC3)cs2)c1)C(=O)O

>  <label>
0.0

$$$$
>  <molecule>
S=C([S-])NCCNC(=S)[S-].S=C([S-])NCCNC(=S)[S-].[Mn+2].[Zn+2]

>  <label>
0.0

$$$$
>  <molecule>
CCc1ccc(Br)cc1

>  <label>
0.0

$$$$
>  <molecule>
COC1=C(OC)C(=O)C(CCCCCCCCCCO)=C(C)C1=O

>  <label>
0.0

$$$$
>  <molecule>
CCCCC(CC)CN1CN(CC(CC)CCCC)CC(C)(N)C1 (centres undefined)

>  <label>
0.0

$$$$
>  <molecule>
CC(C)OC(=O)C(O)(CC(=O)O)CC(=O)O

>  <label>
0.0

$$$$
>  <molecule>
CC(C)(C)c1ccc(C(O)CCCN2CCC(C(O)(c3ccccc3)c3ccccc3)CC2)cc1 (centres undefined)

>  <label>
0.0

$$$$

----------
test: qHTS assay to identify small molecule antagonists of the androgen receptor (AR) signaling pathway using the MDA cell line - cell viability counter screen (AID 743041; note: nearly all actives have a fitted effect of over 45% in size); conditions: MDA-kb2 viability, CellTiter-Fluor, 16 h, cells co-treated with R1881 androgen agonist; series mostly up to 70.3 µM
Results filed as inconclusive are left out. Calls of active or inactive are those of the source. Calls follow the shape of the dose curve; as a rule, active = well fitted cell-killing curve with a large enough effect in the repeat runs; inconclusive = weak or mixed curves, or effect the other way; inactive = flat fitted curve, though single readings scatter.
Outcomes: 1 = active, -1 = inactive

>  <compound>
CCCCCc1ccc(Cl)cc1

>  <label>
-1

$$$$
>  <compound>
Cc1cccc2cccnc12

>  <label>
-1

$$$$
>  <compound>
CCN(CC)c1ccc2c(-c3ccc(S(=O)(=O)O)cc3S(=O)(=O)[O-])c3ccc(=[N+](CC)CC)cc-3oc2c1

>  <label>
1

$$$$
>  <compound>
CC(CO)Oc1ccccc1 (stereo not drawn)

>  <label>
-1

$$$$
>  <compound>
OC1CCCc2ccccc21 (stereo not drawn)

>  <label>
-1

$$$$
>  <compound>
CCCC1CCC(=O)CC1

>  <label>
-1

$$$$
>  <compound>
Oc1ccccc1O

>  <label>
-1

$$$$
>  <compound>
NC[C@H]1O[C@H](O[C@H]2[C@H](O[C@@H]3O[C@H](CO)[C@@H](O)[C@H]3O)C(O)[C@H](N)C[C@@H]2N)[C@H](N)[C@@H](O)[C@@H]1O (stereo partly drawn)

>  <label>
-1

$$$$

----------
assay: A CellTox Green Cytotoxicity Assay to monitor cytotoxicity in HEK293 cells - 32 hour (AID 1224881); conditions: CellTox Green fluorescence; series mostly up to 76.8 µM; note: nearly all actives have a fitted effect of over 40% in size; note: potency is the fitted concentration of half-maximal effect
Results filed as inconclusive are left out. The source made the active and inactive calls. The call rests on the fitted dose curve; in most records, active means well fitted activation curve with a large enough effect in the repeat runs; inconclusive means weak or mixed curves; inactive means flat fitted curve, though single readings scatter.

>  <compound>
O=C(O)c1cc(O)c2ccccc2c1O

>  <Potency>
21.9 µM (active)

$$$$
>  <compound>
C#C[C@]1(OC(C)=O)CC[C@H]2[C@@H]3CCC4=C/C(=N/O)CC[C@@H]4[C@H]3CC[C@@]21CC

>  <Potency>
inactive

$$$$
>  <compound>
O=C(/C=C/c1ccccc1)OC/C=C/c1ccccc1

>  <Potency>
inactive

$$$$
>  <compound>
CC(=O)c1ccc(C(C)=O)cc1

>  <Potency>
inactive

$$$$
>  <compound>
CCCCCCCCCCCC(=O)OCC(C)OC(=O)CCCCC(=O)O (stereo unspecified)

>  <Potency>
inactive

$$$$
>  <compound>
COC(=O)C1=C(C)NC(C)=C(C(=O)OCCN2CCN(C(c3ccccc3)c3ccccc3)CC2)C1c1cccc([N+](=O)[O-])c1 (stereo unspecified)

>  <Potency>
inactive

$$$$
>  <compound>
O=[N+]([O-])c1cccc(C(F)(F)F)c1

>  <Potency>
inactive

$$$$
>  <compound>
CN1CCC[C@@H]1CCO[C@](C)(c1ccccc1)c1ccc(Cl)cc1

>  <Potency>
26.8 µM (active)

$$$$
>  <compound>
COc1ccc(-c2coc3cc(O)ccc3c2=O)cc1

>  <Potency>
inactive

$$$$
>  <compound>
Cc1cc(C)c(/C=C2\C(=O)Nc3ccccc32)[nH]1

>  <Potency>
10.7 µM (active)

$$$$
>  <compound>
S=C([S-])NCCNC(=S)[S-].S=C([S-])NCCNC(=S)[S-].[Mn+2].[Zn+2]

>  <Potency>
inactive

$$$$
>  <compound>
COC(C)=O

>  <Potency>
inactive

$$$$
>  <compound>
CC(C)NC[C@@H](O)COc1ccc(CC(N)=O)cc1

>  <Potency>
inactive

$$$$
>  <compound>
C#C[C@]1(O)CC[C@H]2[C@@H]3[C@H](C)CC4=C(CCC(=O)C4)[C@H]3CC[C@@]21C

>  <Potency>
inactive

$$$$
>  <compound>
Cc1ccc(N/N=c2\c(=O)cc/c(=N\Nc3ccc(S(=O)(=O)O)cc3)c2=O)c(C)c1

>  <Potency>
inactive

$$$$
>  <compound>
Cc1c2ccccc2c(C)c2c1ccc1ccccc12

>  <Potency>
43.6 µM (active)

$$$$
>  <compound>
O=C1OC2(c3ccc(O)cc3Oc3cc(O)ccc32)c2ccc(N=C=S)cc21

>  <Potency>
17.7 µM (active)

$$$$
>  <compound>
CN(C)Cc1cc(C(C)(C)C)c(O)c(C(C)(C)C)c1

>  <Potency>
inactive

$$$$
>  <compound>
CCC(COC(=O)CCS)(COC(=O)CCS)COC(=O)CCS

>  <Potency>
inactive

$$$$
>  <compound>
Nc1ccc(C(=O)O)c(O)c1

>  <Potency>
inactive

$$$$
>  <compound>
O=c1[nH]c2ccccc2n1CCCN1CCN(C(c2ccccc2)c2ccccc2)CC1

>  <Potency>
inactive

$$$$
